Ref: ChEMBL document CHEMBL6153125

TEST: Half life in ICR mouse at 5 mg/kg, iv measured upto 24 hrs by LC-MS/MS analysis
EXPERIMENTAL PARAMETERS: in vivo
MEASURE NAME: half-life at 24 h (min)
Numeric only. Scale: min

Req: Please report the recorded half-life at 24 h for `Cc1ccccc1CN1C(=O)C2=C(CCN(Cc3ccccc3)C2)N2CCN=C12.Cl.Cl.O` .
Resp: 54.6

----------
TEST: in vivo
EXPERIMENTAL PARAMETERS: ICR, mouse, po, 15 mg/kg
Description: Cmax in ICR mouse at 15 mg/kg, po measured upto 24 hrs by LC-MS/MS analysis
MEASURE NAME: Cmax at 24 h (ng/mL)
// note: answer is a bare numeric in ng/mL

Req: Consider the compound shown here: `Cc1ccccc1CN1C(=O)C2=C(CCN(Cc3ccccc3)C2)N2CCN=C12.Cl.Cl.O` What is its recorded Cmax at 24 h?
Resp: 566
